# Tested on: Candida albicans
# ASSAY_INFO: Growth inhibition of Candida albicans at 300 ug/ml by cup-plate method
# Type: functional, organism-based
Activity calls are given as the source filed them. No cut-off for these calls is given here.
OBSERVATION_TYPE: growth inhibition (GI)

Recorded growth inhibition (GI) (compound CCn1c(-c2ccccc2)c(C=C2C(=O)NC(=O)NC2=O)c2ccccc21 ): Active

Recorded growth inhibition (GI) (compound COc1ccc(C(=O)Cn2c(-c3ccccc3)c(C=C3C(=O)NC(=O)NC3=O)c3ccccc32)cc1 ): Active

Recorded growth inhibition (GI) (compound O=C1NC(=O)C(=Cc2c(-c3ccccc3)n(CC(=O)c3ccccc3)c3ccccc23)C(=O)N1 ): inactive

Recorded growth inhibition (GI) (compound O=C1NC(=O)C(=Cc2c(-c3ccccc3)n(CC(=O)c3ccc(Br)cc3)c3ccccc23)C(=O)N1 ): Active

Recorded growth inhibition (GI) (compound O=C1NC(=O)C(=Cc2c(-c3ccccc3)n(CC(=O)c3ccc(Cl)cc3)c3ccccc23)C(=O)N1 ): Active

Recorded growth inhibition (GI) (compound CCCCn1c(-c2ccccc2)c(C=C2C(=O)NC(=O)NC2=O)c2ccccc21 ): Active

Recorded growth inhibition (GI) (compound CC(=O)N1CCN(c2ccc(OCC3COC(Cn4ccnc4)(c4ccc(Cl)cc4Cl)O3)cc2)CC1 (stereo not given) ): Active

Recorded growth inhibition (GI) (compound C=CCn1c(-c2ccccc2)c(C=C2C(=O)NC(=O)NC2=O)c2ccccc21 ): Active

Continuing:
Recorded growth inhibition (GI) (compound O=C1NC(=O)C(=Cc2c(-c3ccccc3)n(CC(=O)c3ccc(-c4ccccc4)cc3)c3ccccc23)C(=O)N1 ): inactive

Recorded growth inhibition (GI) (compound CC1(C)S[C@@H]2[C@H](NC(=O)[C@H](N)c3ccccc3)C(=O)N2[C@H]1C(=O)O ): inactive

###

# Tested on: Staphylococcus aureus
# ASSAY_INFO: Growth inhibition of Staphylococcus aureus at 100 ug/ml by cup-plate method
# Type: functional, organism-based
Active and inactive are the calls of the source. The calls are words filed in the database; no cut-off is given here.
In this exercise, the only acceptable responses are active, inactive

[ask] I'd appreciate the recorded outcome for CC1(C)S[C@@H]2[C@H](NC(=O)[C@H](N)c3ccccc3)C(=O)N2[C@H]1C(=O)O from this test.
[reply] active

Continuing:
[ask] I'd appreciate the recorded outcome for O=C1NC(=O)C(=Cc2c(-c3ccccc3)n(CC(=O)c3ccc(-c4ccccc4)cc3)c3ccccc23)C(=O)N1 from this test.
[reply] active

[ask] I'd appreciate the recorded outcome for O=C1NC(=O)C(=Cc2c(-c3ccccc3)n(CC(=O)c3ccc(Cl)cc3)c3ccccc23)C(=O)N1 from this test.
[reply] active

[ask] I'd appreciate the recorded outcome for CCn1c(-c2ccccc2)c(C=C2C(=O)NC(=O)NC2=O)c2ccccc21 from this test.
[reply] inactive

[ask] I'd appreciate the recorded outcome for O=C1NC(=O)C(=Cc2c(-c3ccccc3)n(CC(=O)c3ccc(Br)cc3)c3ccccc23)C(=O)N1 from this test.
[reply] active

[ask] I'd appreciate the recorded outcome for O=C1NC(=O)C(=Cc2c(-c3ccccc3)n(CC(=O)c3ccccc3)c3ccccc23)C(=O)N1 from this test.
[reply] inactive

[ask] I'd appreciate the recorded outcome for C=CCn1c(-c2ccccc2)c(C=C2C(=O)NC(=O)NC2=O)c2ccccc21 from this test.
[reply] active

[ask] I'd appreciate the recorded outcome for COc1ccc(C(=O)Cn2c(-c3ccccc3)c(C=C3C(=O)NC(=O)NC3=O)c3ccccc32)cc1 from this test.
[reply] inactive

[ask] I'd appreciate the recorded outcome for CCCCn1c(-c2ccccc2)c(C=C2C(=O)NC(=O)NC2=O)c2ccccc21 from this test.
[reply] active
